Please go through the items and note down their melting point.

These solved cases illustrate the format of a correct answer.
Entry under test: O=C(Nc1ccc(Cl)c(C(F)(F)F)c1)Nc1ccc2ncnc(Nc3ccc(Br)cc3)c2c1 [Compound 7k] . Its melting point was 269.8 to 271.1 °C

Entry under test: COc1ccc(NC(=O)Nc2ccc3ncnc(Nc4ccc(Br)cc4)c3c2)cc1 [Compound 7q] . Its melting point was 267.1 to 268.2 °C

Entry under test: O=C(Nc1ccc(Cl)c(C(F)(F)F)c1)Nc1ccc2ncnc(Nc3cccc(Br)c3)c2c1 [Compound 7i] . Its melting point was 268 to 268.9 °C

Entry under test: O=C(Nc1ccccc1)Nc1ccc2ncnc(Nc3ccc(F)cc3)c2c1 [Compound 7f] . Its melting point was 252.8 to 253.5 °C

Entry under test: O=C(Nc1ccccc1)Nc1ccc2ncnc(Nc3ccc(Br)cc3F)c2c1 [Compound 7c] . Its melting point was 256 to 256.8 °C

Okay, here is my list. What is melting point for each of these?
1. COc1ccc(NC(=O)Nc2ccc3ncnc(Nc4cccc(C)c4C)c3c2)cc1 [Compound 7p]
2. COc1ccc(NC(=O)Nc2ccc3ncnc(Nc4ccc(F)cc4)c3c2)cc1 [Compound 7r]

stdout:
1. 241.1 to 242.7 °C
2. 250.2 to 251.8 °C

Okay, here is my list. What is melting point for each of these?
1. O=C(Nc1ccccc1)Nc1ccc2ncnc(Nc3cccc(Br)c3)c2c1 [Compound 7a]
2. Cc1cccc(Nc2ncnc3ccc(NC(=O)Nc4ccccc4)cc23)c1C [Compound 7h]
3. COc1ccc(NC(=O)Nc2ccc3ncnc(Nc4ccc(C)cc4)c3c2)cc1 [Compound 7s]
4. O=C(Nc1ccccc1)Nc1ccc2ncnc(Nc3ccc(F)c(Cl)c3)c2c1 [Compound 7d]
5. Cc1ccc(Nc2ncnc3ccc(NC(=O)Nc4ccc(F)cc4)cc23)cc1 [Compound 7o]

stdout:
1. 250 to 250.9 °C
2. 242.8 to 243.7 °C
3. 259.5 to 260.1 °C
4. 233 to 233.7 °C
5. 247.2 to 248.4 °C
